- target-system: human TLR9 (Homo sapiens, UniProt Q9NR96)
- Sequence (Q9NR96 26-1032): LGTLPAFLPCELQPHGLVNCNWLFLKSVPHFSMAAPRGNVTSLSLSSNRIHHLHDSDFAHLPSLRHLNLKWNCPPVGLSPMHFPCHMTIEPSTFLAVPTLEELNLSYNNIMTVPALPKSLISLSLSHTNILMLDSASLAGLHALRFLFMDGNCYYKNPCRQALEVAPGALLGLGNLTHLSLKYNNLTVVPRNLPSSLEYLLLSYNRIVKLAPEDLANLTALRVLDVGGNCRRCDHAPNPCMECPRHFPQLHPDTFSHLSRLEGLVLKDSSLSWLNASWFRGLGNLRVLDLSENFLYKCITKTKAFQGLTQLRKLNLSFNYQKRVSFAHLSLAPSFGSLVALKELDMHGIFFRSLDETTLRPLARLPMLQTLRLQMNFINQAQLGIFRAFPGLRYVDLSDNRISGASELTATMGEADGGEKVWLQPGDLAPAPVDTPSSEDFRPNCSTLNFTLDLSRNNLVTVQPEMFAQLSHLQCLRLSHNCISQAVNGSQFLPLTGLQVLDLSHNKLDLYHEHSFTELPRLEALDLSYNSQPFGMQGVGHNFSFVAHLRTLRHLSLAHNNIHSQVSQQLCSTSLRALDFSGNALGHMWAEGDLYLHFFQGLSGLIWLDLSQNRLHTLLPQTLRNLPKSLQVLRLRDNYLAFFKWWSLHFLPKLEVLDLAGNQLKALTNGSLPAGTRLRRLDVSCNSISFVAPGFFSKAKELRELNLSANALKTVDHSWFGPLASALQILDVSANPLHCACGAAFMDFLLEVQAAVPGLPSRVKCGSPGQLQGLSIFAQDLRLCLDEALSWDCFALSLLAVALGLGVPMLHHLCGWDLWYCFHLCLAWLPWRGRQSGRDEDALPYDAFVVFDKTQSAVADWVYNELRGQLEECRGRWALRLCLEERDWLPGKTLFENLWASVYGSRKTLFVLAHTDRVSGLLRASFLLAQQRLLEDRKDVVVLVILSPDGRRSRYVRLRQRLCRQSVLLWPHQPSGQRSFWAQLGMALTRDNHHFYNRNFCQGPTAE
- assay-text: TLR9 inhibition reporter assay (HEK-Blue cells, SEAP reporter, ODN2006 stimulation)
- conditions-used: HEK-Blue cells overexpressing human TLR9, SEAP reporter, ODN2006 5 nM
measured-metric: IC50

CCc1c(-c2ccc3ncc(C#N)n3n2)[nH]c2ccc(C3CCNCC3)cc12; 1 to 50 µM

Q. Look at this molecule and give its reported IC50. COCCN1CCC(c2ccc3[nH]c(-c4cc(OC)n5ncnc5c4)c(C(C)C)c3c2)CC1
A. 1 to 50 µM

Q. # lookup: IC50 of Cc1nnn2ccc(-c3[nH]c4ccc(C5CCN(CC(N)=O)CC5)cc4c3C(C)C)cc12
A. 1 to 50 µM

Q. Reported IC50, molecule Cc1c(-c2[nH]c3ccc(C4CCNCC4)cc3c2C(C)C)cn2ccnc2c1Cl : ____
A. 1 to 50 µM

Q. Sample Cc1cc2nccn2cc1-c1[nH]c2ccc(C3CCNCC3)cc2c1C(C)C — what was its IC50?
A. 0.1 to 1 µM

Q. Look at this molecule and give its reported IC50. CC(C)c1c(-c2cnc3nn(C)cc3c2)[nH]c2ccc(C3CCN(CC(C)(C)O)CC3)cc12
A. 1 to 50 µM

Q. Requested read-out: IC50. Entry: Cc1cn2c(C)c(-c3[nH]c4ccc(C5CCNCC5)cc4c3C(C)C)ccc2n1
A. 0.1 to 1 µM

Q. Find the recorded IC50 belonging to Cc1cn2cc(-c3[nH]c4ccc(C5CCN(CC(=O)N(C)C)CC5)cc4c3CC(F)F)ccc2n1 and report it.
A. < 0.1 µM

Q. Field request: IC50 | item: CC(=O)N1CCC(C(=O)N2CCC(c3ccc4[nH]c(-c5ccnc6[nH]ncc56)c(C(C)C)c4c3)CC2)CC1
A. 1 to 50 µM

Q. Sample Cc1c(-c2[nH]c3ccc(C4CCN(CC(=O)N(C)C)CC4)cc3c2C(C)C)nn2ncnc2c1C — what was its IC50?
A. 1 to 50 µM

Q. IC50 lookup needed for Cc1cc(-c2[nH]c3ccc(C4CCN(CC(=O)N(C)C)CC4)cc3c2C(C)C)cn2nnnc12 , thanks.
A. 1 to 50 µM

These measurements were taken from patent US11739098B2.
